# TEST SUMMARY: acute toxicity LD50 in rats
# RUN PARAMETERS: rat, in vivo, iv
LD50 for assorted compounds
Just the number please, in mg/kg, no unit attached.

{"COMPOUND": "COC12CC(CNc3ncc(Br)cn3)CN(C)C1Cc1cn(C)c3cccc2c13 (centres unmarked)", "UNIT TAG": "mg/kg", "LD50": 50}
{"COMPOUND": "COC12CC(CNc3ncccn3)CN(C)C1Cc1cn(C)c3cccc2c13 (centres unmarked)", "UNIT TAG": "mg/kg", "LD50": 25}
{"COMPOUND": "COC12CC(CNc3ncc(C)cn3)CN(C)C1Cc1cn(C)c3cccc2c13 (centres unmarked)", "UNIT TAG": "mg/kg", "LD50": 18}
{"COMPOUND": "CN1CC(CNc2ncc(C#N)cn2)CC2c3cccc4c3c(cn4C)CC21 (centres unmarked)", "UNIT TAG": "mg/kg", "LD50": 25}
{"COMPOUND": "COC12CC(CNc3ncc(C#N)cn3)CN(C)C1Cc1cn(C)c3cccc2c13 (centres unmarked)", "UNIT TAG": "mg/kg", "LD50": 38}
{"COMPOUND": "Cc1cnc(NCC2CC3c4cccc5c4c(cn5C)CC3N(C)C2)nc1 (centres unmarked)", "UNIT TAG": "mg/kg", "LD50": 35}
{"COMPOUND": "CN1CC(CNc2ncc(N)cn2)CC2c3cccc4c3c(cn4C)CC21 (centres unmarked)", "UNIT TAG": "mg/kg", "LD50": 18}

Continue with the compound presented below.
Request: Assign LD50 to the following record: COC12CC(CNc3ncc([N+](=O)[O-])cn3)CN(C)C1Cc1cn(C)c3cccc2c13 (centres unmarked)
Response: 28
